Target: delta opioid receptor (Rattus norvegicus, UniProt P33533)
Sequence (P33533 whole entry): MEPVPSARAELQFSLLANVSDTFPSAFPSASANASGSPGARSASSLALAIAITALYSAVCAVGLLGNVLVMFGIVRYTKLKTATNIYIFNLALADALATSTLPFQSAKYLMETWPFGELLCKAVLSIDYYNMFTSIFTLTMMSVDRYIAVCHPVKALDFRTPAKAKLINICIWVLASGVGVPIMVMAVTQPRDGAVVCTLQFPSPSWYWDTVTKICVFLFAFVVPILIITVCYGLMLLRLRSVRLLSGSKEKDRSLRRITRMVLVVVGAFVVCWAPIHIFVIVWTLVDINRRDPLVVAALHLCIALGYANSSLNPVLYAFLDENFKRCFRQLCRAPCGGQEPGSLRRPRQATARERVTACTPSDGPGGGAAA
Experiment: Rat brain delta opioid receptor binding assay ([3H]DPDPE)
Settings: DOR Ki, Rat delta opioid receptor binding constant; rat forebrain membranes, ~4 nM [3H]DPDPE
Field: label. Allowed values: met (Ki < 400 nM) or not met (Ki >= 400 nM).

Check if Ki falls below 400 nM for O=S1NC(c2ccc3c(c2)Oc2ccccc2C3=C2CC3CCC(C2)N3)=NO1 (centres unmarked) .
met

Check if Ki falls below 400 nM for CC(C)CNC(=N)c1ccc2c(c1)Oc1ccccc1C2=C1CC2CCC(C1)N2 .
not met

Check if Ki falls below 400 nM for c1ccc(Sc2ccc3c(c2)Sc2ccccc2C3=C2CC3CCC(C2)N3)cc1 .
not met

Check if Ki falls below 400 nM for c1ccc2c(c1)Oc1cc(C3=NCCCN3)ccc1C2=C1CC2CCC(C1)N2 .
not met
